Test system: Avian myeloblastosis virus
Experiment Description: Inhibition of AMV reverse transcriptase activity assessed as incorporation of dTMP in poly(rA)-oligo(dT) at 1000 uM
Set-up: scale not given: the % may be the effect or the level left
Measured Parameter: Activity (%)
Give just the number in %; leave the unit off.

IN: What Activity value was documented for this molecule, O=c1oc2c(O)c(O)cc3c(=O)oc4c(O)c(O)cc1c4c23 ?
OUT: 0

Continuing:
IN: What Activity value was documented for this molecule, O=C1OC[C@H]2O[C@@H](O)[C@H](O)[C@@H](O)[C@@H]2OC(=O)c2cc(O)c(O)c(O)c2-c2c(O)c(O)c3oc(=O)c4c(c(O)c(O)c5oc(=O)c2c3c54)-c2c1cc(O)c(O)c2O ?
OUT: 1

IN: What Activity value was documented for this molecule, O=C1O[C@@H]2[C@@H](OC(=O)c3cc(O)c(O)c(O)c3-c3c1cc(O)c(O)c3O)[C@H](O)O[C@@H]1COC(=O)c3cc(O)c(O)c(O)c3-c3c(O)c(O)c4oc(=O)c5c(c(O)c(O)c6oc(=O)c3c4c65)-c3c(cc(O)c(O)c3O)C(=O)O[C@@H]21 ?
OUT: 2

IN: What Activity value was documented for this molecule, O=C[C@@H]1OC(=O)c2c3c(O)c(O)c(O)c2-c2c(cc(O)c(O)c2O)C(=O)O[C@H]1[C@@H]1OC(=O)c2c(c(O)c(O)c(O)c2-c2c(cc(O)c(O)c2O)C(=O)O[C@H]1COC(=O)c1cc(O)c(O)c(O)c1)O[C@H]1[C@@H]2OC(=O)c4cc(O)c(O)c(O)c4-c4c(cc(O)c(O)c4O)C(=O)O[C@H]2[C@H](OC(=O)c2cc(O)c(O)c(O)c2)O[C@@H]1CO3 ?
OUT: 3
